# key: entry, value: RP-LC retention time
Assay: gradient 5% acetonitrile 3 min, to 50% in 2 min, to 85% in 15 min, held 3 min, 100 µL/min
Conditions: column: Zorbax Extend-C18 2.1 x 50 mm; eluents: water / acetonitrile, 0.1% formic acid
Kindly answer with a numeric value in s, unit omitted.

IN: Would you kindly share the measured RP-LC retention time for `O=C(NC1CCCCCC1)c1csc(-c2ccc(N3CCCC3)nc2)n1` ?
OUT: 774

IN: Which value of RP-LC retention time has been reported for `Cc1cc(COC(=O)c2cc3ccccc3o2)no1` in the records?
OUT: 866

IN: Fill in: RP-LC retention time of `O=C(Nc1ccccc1)C1CCN(S(=O)(=O)c2cc(C(=O)N3CCOCC3)cs2)CC1` is ___
OUT: 757

IN: Entry `CCCN(C)C(=O)c1c(C)oc2c1CN(C(=O)CC)CC2` : reported RP-LC retention time = ?
OUT: 652

IN: Any idea what RP-LC retention time was measured for `COc1ccc(-c2ncc(C(=O)Nc3ccc(OC)c(Cl)c3)c(-c3ccncc3)n2)cc1` ?
OUT: 902

* * *

Test: gradient 5% acetonitrile 3 min, to 50% in 2 min, to 85% in 15 min, held 3 min, 100 µL/min
Settings: column: Zorbax Extend-C18 2.1 x 50 mm; eluents: water / acetonitrile, 0.1% formic acid
Observation type: RP-LC retention time (s)
Report only the number, with the unit s understood.

Take a look at these entries with their results.
[[record]]
molecule = "NC(=O)C1CCN(Cc2nc(-c3ccc(N4CCOCC4)nc3)no2)CC1"
observation_type = "RP-LC retention time"
measurement = 563

[[record]]
molecule = "CC1CCN(C(=O)c2cccn2Cc2noc(-c3ccc(Cl)cc3)n2)CC1"
observation_type = "RP-LC retention time"
measurement = 1200

[[record]]
molecule = "COc1ccc(C(=O)N2CCC(n3c(-c4ccoc4)nc4cccnc43)C2)cc1 (centres undefined)"
observation_type = "RP-LC retention time"
measurement = 659

[[record]]
molecule = "CC(=O)c1cccc(NC(=O)c2cnc(-c3ccccc3)nc2-c2ccncc2)c1"
observation_type = "RP-LC retention time"
measurement = 800

[[record]]
molecule = "CNC(=O)C1CCCN(c2nc3ncn(CC(=O)Nc4ccccc4OC)c(=O)c3s2)C1 (centres undefined)"
observation_type = "RP-LC retention time"
measurement = 649


IN: Suppose we examine the molecule `Cc1ccc(CNC(=O)CCCN2C(=O)CCn3nc(-c4cn(C)c5ccccc45)cc32)o1` ; what RP-LC retention time value has been reported?
OUT: 815

IN: Fill in the blank: the reported RP-LC retention time of CCOC(=O)C1=C(C)N(CC(=O)NC2CCCC2)c2ncnn2C1c1ccc(C)cc1 (centres undefined) is ____.
OUT: 897

IN: Need RP-LC retention time of `COc1ccc(C(=O)N2C[C@@H]3C[C@H](NC(=O)c4cccnc4)[C@H]2C3)c(OC)c1` , thanks.
OUT: 605

IN: Fill in the blank: the reported RP-LC retention time of `CCc1nc2c(c(=O)n1CC(=O)NC1CCCCC1)CN(Cc1ccccc1)CC2` is ____.
OUT: 652

* * *

Assay: gradient 5% acetonitrile 3 min, to 50% in 2 min, to 85% in 15 min, held 3 min, 100 µL/min
Conditions: column: Zorbax Extend-C18 2.1 x 50 mm; eluents: water / acetonitrile, 0.1% formic acid
Each entry below carries its reported RP-LC retention time.
Respond numerically; units are s and should not be typed.

For orientation, consider the following solved cases.
[[record]]
compound = "Fc1ccc(-c2noc(-c3ccc(NC4CC4)nc3)n2)cc1"
measurement = 901

[[record]]
compound = "O=C(CCn1cnc2cc(-c3noc(-c4ccccc4F)n3)ccc21)N1CCCC1"
measurement = 730

[[record]]
compound = "Cc1ccc(-c2ccc(N3CCCC(C(=O)NCCN4CCC(C)CC4)C3)nn2)cc1 (centres undefined)"
measurement = 594

[[record]]
compound = "COc1ccc(NS(=O)(=O)c2cc(-c3cc(C(F)(F)F)on3)sc2C)cc1OC"
measurement = 1020

[[record]]
compound = "Cc1cc(F)ccc1NC(=O)Cn1cccc1-c1nnc(C2CCC2)o1"
measurement = 916

[[record]]
compound = "CNC(=O)c1nc(C(=O)NCCc2ccc(OC)c(OC)c2)cs1"
measurement = 623


IN: Entry CCOC(=O)C1=C(CN(C)Cc2ccccc2)NC(=O)NC1c1ccc(F)cc1 (centres undefined) has what RP-LC retention time?
OUT: 663

IN: // lookup RP-LC retention time for `Cc1ccc(NC(=O)Cn2nc3c(N4CCN(c5ccccc5C)CC4)nccn3c2=O)cc1`
OUT: 1080

IN: Which RP-LC retention time is reported for this compound? `CCn1c(=O)c(C(=O)NCc2cccc(OC)c2)nc2cccnc21`
OUT: 780

IN: Request the reported RP-LC retention time associated with `Cc1ccccc1S(=O)(=O)N1[C@H]2CC[C@@H]1c1cnc(-c3ccc(F)cc3)nc1C2`
OUT: 1210

IN: Entry under review: O=C(NCC1CC(=O)N(c2ccc3c(c2)OCO3)C1)Nc1ccccc1C(F)(F)F (centres undefined) . Reported RP-LC retention time?
OUT: 717

IN: Given the entry `CC(C)CN1CCCCc2cc(C(N)=O)sc21` , report its measured RP-LC retention time.
OUT: 829

IN: RP-LC retention time lookup needed for `O=C(Nc1c(-c2ccccc2)nc2ccccn12)c1ccc2ccccc2c1` , thanks.
OUT: 720

IN: What measured RP-LC retention time goes with `Cc1nc(CC(=O)Nc2nc(-c3ccc(OC(C)C)cc3)cs2)cs1` ?
OUT: 1080

* * *

Test: gradient 5% acetonitrile 3 min, to 50% in 2 min, to 85% in 15 min, held 3 min, 100 µL/min
Settings: column: Zorbax Extend-C18 2.1 x 50 mm; eluents: water / acetonitrile, 0.1% formic acid
Documented RP-LC retention time across a set of compounds
Express the result in s but write the number alone.

[[record]]
compound = "CCc1onc(C)c1C1CCCN1C(=O)Cc1ccccc1F (stereo not given)"
measurement = 823

[[record]]
compound = "CCc1ccc(-n2ncc3c(=O)n(Cc4nc(-c5cccc(C)c5)no4)cnc32)cc1"
measurement = 1210

[[record]]
compound = "COCC(=O)N(CCC(C)C)CC(=O)N1CCc2sccc2C1COc1ccccc1F (stereo not given)"
measurement = 958

[[record]]
compound = "COCC1(O)CCOC2(CCN(Cc3ccc(C)cc3C)CC2)C1 (stereo not given)"
measurement = 559


Moving on to another compound below.
IN: So what's the measured RP-LC retention time for this one? `O=C(NCc1ccco1)N1CCCn2nc(-c3cccs3)cc2C1`
OUT: 752

* * *

Experiment: gradient 5% acetonitrile 3 min, to 50% in 2 min, to 85% in 15 min, held 3 min, 100 µL/min
Settings: column: Zorbax Extend-C18 2.1 x 50 mm; eluents: water / acetonitrile, 0.1% formic acid
Observation type: RP-LC retention time (s)
Note: unit s is implicit; provide only the numeric part.

IN: RP-LC retention time for `Cc1c(CN2CCSCC2)nnn1-c1ccccc1` ?
OUT: 583

IN: Need RP-LC retention time, item `FC(F)(F)c1cccc(N2CCN(c3ncnc4sccc34)CC2)c1`
OUT: 987

IN: What value of RP-LC retention time has been reported for the following compound? `Cc1ccccc1NS(=O)(=O)c1c[nH]c2ncccc12`
OUT: 728

IN: Suppose we examine the compound `CCc1cccc(NC(=O)Nc2c(-c3ccncc3)nc3ccccn23)c1` ; what RP-LC retention time value has been reported?
OUT: 630

* * *

Assay: gradient 5% acetonitrile 3 min, to 50% in 2 min, to 85% in 15 min, held 3 min, 100 µL/min
Conditions: column: Zorbax Extend-C18 2.1 x 50 mm; eluents: water / acetonitrile, 0.1% formic acid
Observation type: RP-LC retention time (s)
State just the number; it will be interpreted in s.

[[record]]
compound = "CC(C)CC(=O)NCC12CCC=C1N(C)C(=O)CC2 (centres undefined)"
observation_type = "RP-LC retention time"
measurement = 691

[[record]]
compound = "O=C(Cn1nc2c3ccc(Cl)cc3ncn2c1=O)Nc1ccccc1"
observation_type = "RP-LC retention time"
measurement = 727

[[record]]
compound = "CCCN1C(=O)COc2cc(-c3noc(C(=O)NC(C)CC)n3)ccc21 (centres undefined)"
observation_type = "RP-LC retention time"
measurement = 950

[[record]]
compound = "O=c1n(Cc2ccc3c(c2)OCO3)nc2c(S(=O)(=O)N3CCCCC3)cccn12"
observation_type = "RP-LC retention time"
measurement = 828

[[record]]
compound = "O=C1NCC2(CCN(CCc3ccccc3)CC2)O1"
observation_type = "RP-LC retention time"
measurement = 579


IN: // lookup RP-LC retention time for COC(=O)c1c(C)c(C(=O)C(C)N(Cc2ccc(F)cc2)C(=O)C2CC2)c(C)n1C (centres undefined)
OUT: 917

IN: Quick one: RP-LC retention time of COCCOC(=O)C1=C(C)NC2=C(C(=O)C(C(=O)OC)C(C)C2)C1c1cccc(Cl)c1 (centres undefined) ?
OUT: 899

IN: May I ask what RP-LC retention time has been recorded for `COC(=O)C1=CN(C2CC2)c2cc(N3CCC4(CC3)OCCO4)c(F)cc2S1(=O)=O` ?
OUT: 806

IN: Look at this compound and give its reported RP-LC retention time. CCC(C)C(NC(=O)c1ccc(F)cc1)C(=O)Nc1nc2ccccc2[nH]1 (centres undefined)
OUT: 746

IN: Which RP-LC retention time is listed for `CCCN1CCN(C(=O)c2cnn(-c3cc(-c4nc(C(C)(C)C)no4)ccn3)c2C)CC1` ?
OUT: 715

IN: // returns reported RP-LC retention time for input COc1cccc(CNC(=O)CN2C(=O)C3CCCCN3c3ccc(S(=O)(=O)N(C)C)cc32)c1 (centres undefined)
OUT: 887

IN: What RP-LC retention time value was documented for this compound, `O=c1ccc(-c2ccc(F)cc2)nn1CCc1nc(-c2ccccc2Cl)no1` ?
OUT: 1020

IN: // query RP-LC retention time value for entry `CCOC(=O)N1CCC(NC(=O)CCc2cc3ccc(C)cc3[nH]c2=O)CC1`
OUT: 689
